- System: Mus musculus
- Assay summary: Reversal of reserpine-induced ptosis in po dosed mouse
- Type: functional
- Assay context: Mus musculus, po; read-out: ED50
Property measured: ED50 (mg/kg)
Note: unit mg/kg is implicit; provide only the numeric part.

Consider the reported ED50 for these molecules:
> print(dat)
                                   molecule  numeric.result
1  CC1(NCC(O)c2ccc(O)c(NS(C)(=O)=O)c2)CC1.Cl (stereo not drawn)             1.1
2         CS(=O)(=O)Nc1cc(CCNC2CC2)ccc1O.Cl             1.5

query: Using the record for CS(=O)(=O)Nc1cc(C(O)CNC2CC2)ccc1O.Cl (stereo in doubt; 44) , report its ED50.
result: 0.255
